Taken from paper PMC2883171.

Target under test: soybean lipoxygenase-1 (sLO-1) (Glycine max, UniProt P08170)
Sequence (P08170 whole entry): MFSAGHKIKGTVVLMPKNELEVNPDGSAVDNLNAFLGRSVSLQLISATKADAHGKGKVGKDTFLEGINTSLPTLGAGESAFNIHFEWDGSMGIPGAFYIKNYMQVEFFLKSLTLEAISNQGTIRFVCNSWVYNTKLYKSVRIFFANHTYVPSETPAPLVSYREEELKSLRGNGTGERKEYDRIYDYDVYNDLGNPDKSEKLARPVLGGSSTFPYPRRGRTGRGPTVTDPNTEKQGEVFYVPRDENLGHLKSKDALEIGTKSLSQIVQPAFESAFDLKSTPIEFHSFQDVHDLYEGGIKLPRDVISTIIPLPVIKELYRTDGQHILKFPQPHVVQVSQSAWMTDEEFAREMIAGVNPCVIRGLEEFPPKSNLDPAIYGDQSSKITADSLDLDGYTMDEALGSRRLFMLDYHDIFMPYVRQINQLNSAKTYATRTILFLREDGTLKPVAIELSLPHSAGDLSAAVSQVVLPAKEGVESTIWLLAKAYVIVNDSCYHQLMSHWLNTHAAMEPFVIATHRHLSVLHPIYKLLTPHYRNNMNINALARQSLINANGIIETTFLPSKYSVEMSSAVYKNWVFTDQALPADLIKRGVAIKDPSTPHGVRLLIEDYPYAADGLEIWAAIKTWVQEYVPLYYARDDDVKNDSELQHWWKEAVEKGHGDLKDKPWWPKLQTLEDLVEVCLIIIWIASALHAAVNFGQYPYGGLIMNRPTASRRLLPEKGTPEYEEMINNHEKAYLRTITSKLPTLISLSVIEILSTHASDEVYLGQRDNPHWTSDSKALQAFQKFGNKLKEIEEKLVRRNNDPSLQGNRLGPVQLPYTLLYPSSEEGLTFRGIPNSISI
Method notes: Kinetic inhibition assay of sLO-1
Format: biochemical
Measurement parameters: Kis, substrate arachidonic acid, pH 7.5, 13-HPODE activator, noncompetitive
Observed property: Ki (µM)
Numbers only, in µM.

// CCCCC/C=C\S/C=C\CCCCCCCC(=O)O [Compound 11-thiaLA, 11-Thialinoleic acid] : Ki value = 45.6

* * *

Target under test: UniProtKB P18054
Sequence (P18054 whole entry): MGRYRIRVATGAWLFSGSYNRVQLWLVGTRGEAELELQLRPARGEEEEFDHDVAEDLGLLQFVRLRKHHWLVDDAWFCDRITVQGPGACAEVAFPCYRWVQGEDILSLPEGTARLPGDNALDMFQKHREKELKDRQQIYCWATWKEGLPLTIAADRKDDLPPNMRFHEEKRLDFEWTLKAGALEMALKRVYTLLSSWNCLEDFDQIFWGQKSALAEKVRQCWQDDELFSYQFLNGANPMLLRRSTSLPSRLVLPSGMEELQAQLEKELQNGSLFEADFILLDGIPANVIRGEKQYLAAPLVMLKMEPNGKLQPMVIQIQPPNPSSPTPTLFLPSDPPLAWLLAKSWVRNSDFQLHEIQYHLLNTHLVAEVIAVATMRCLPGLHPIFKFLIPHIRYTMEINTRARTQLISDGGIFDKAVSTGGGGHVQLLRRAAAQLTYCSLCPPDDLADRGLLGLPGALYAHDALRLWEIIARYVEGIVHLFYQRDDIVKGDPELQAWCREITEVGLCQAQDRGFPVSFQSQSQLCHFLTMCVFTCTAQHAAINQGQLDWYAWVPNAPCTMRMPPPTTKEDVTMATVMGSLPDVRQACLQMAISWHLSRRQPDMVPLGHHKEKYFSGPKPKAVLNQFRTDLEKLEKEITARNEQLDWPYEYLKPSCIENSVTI
Observed property: pKi
Answers are plain numbers, as −log10 of the molar value.

So for "CCCCC/C=C\S/C=C\CCCCCCCC(=O)O" , the logged pKi turned out to be 5.60
